Entries and their measured inhibition follow.
Tested Target: E3 ubiquitin-protein ligase UHRF1 (Homo sapiens) (UniProt Q96T88)
Sequence (Q96T88 whole entry, looked up, the tested form may be a part): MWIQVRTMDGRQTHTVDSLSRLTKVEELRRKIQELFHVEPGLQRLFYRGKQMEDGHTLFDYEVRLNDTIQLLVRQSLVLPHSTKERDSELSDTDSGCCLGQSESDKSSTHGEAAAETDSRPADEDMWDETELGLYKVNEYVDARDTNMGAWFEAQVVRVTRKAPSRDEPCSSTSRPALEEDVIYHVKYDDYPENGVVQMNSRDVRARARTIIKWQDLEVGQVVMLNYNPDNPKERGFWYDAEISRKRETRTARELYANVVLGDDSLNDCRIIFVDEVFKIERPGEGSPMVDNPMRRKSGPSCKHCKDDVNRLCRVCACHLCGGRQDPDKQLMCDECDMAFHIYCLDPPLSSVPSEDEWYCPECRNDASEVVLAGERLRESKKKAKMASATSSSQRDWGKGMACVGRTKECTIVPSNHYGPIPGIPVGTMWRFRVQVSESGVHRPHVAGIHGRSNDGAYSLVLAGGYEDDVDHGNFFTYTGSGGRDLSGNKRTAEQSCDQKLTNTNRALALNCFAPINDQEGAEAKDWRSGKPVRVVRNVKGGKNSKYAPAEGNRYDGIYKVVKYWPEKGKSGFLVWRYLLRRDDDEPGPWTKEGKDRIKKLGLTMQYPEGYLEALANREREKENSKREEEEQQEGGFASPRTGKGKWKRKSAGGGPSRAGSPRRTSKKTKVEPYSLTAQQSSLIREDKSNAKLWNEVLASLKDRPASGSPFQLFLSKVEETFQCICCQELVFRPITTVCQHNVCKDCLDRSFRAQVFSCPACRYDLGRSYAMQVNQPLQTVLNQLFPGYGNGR
Method: blockers of UHRF1 binding to methyl-oligo – biochemical, TR-FRET, human UHRF1, single concentration, counter-screen for MBD2 inhibitor project, primary screen (AID 687016);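 note: UHRF1 SRA domain binding a hemimethylated CpG hairpin DNA probe; 0% = median of test compound wells and 100% = reference inhibitor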
Settings: UHRF1 binding to methylated oligo, at 4.4 µM, stronger effect = higher value
Screen size: about 370,000 compounds; about 2,800 (0.76%) were called active. The full list was thinned out, with actives kept by preference.

Compound: COc1ccccc1Cc1c(-c2ccc(Cl)cc2)nc2ccc(Cl)cn12
Result Unit: %
inhibition: -0.13
--
Compound: CC(=O)Nc1ccc(OC[C@@H](O)CN2CCC(C(O)(c3ccccc3)c3ccccc3)CC2)cc1
Result Unit: %
inhibition: 1.32
--
Compound: COC(=O)[C@]12C[C@H](CC(=O)NCc3cccc4ccccc34)C(=O)N(CCc3ccc(OC)c(OC)c3)C1=C[C@H](C1CCCC1)O[C@@H]2C
Result Unit: %
inhibition: 0
--
Compound: O=C(CSc1nc2ccccc2nc1N1CCCCC1)N1CCN(S(=O)(=O)c2cccc([N+](=O)[O-])c2)CC1
Result Unit: %
inhibition: -2.11
--
Compound: Cc1cc(C(=O)NNC(=O)c2cccc(S(=O)(=O)N3CCOCC3)c2)c2ccccc2n1
Result Unit: %
inhibition: -0.61
--
Compound: O=C(NCCOc1ccccc1F)Nc1ccc(Br)cc1
Result Unit: %
inhibition: 4.11
--
Compound: CCOc1cc(N2CCOCC2)c(OCC)cc1NC(=O)C1=NN(c2cccc(C)c2)C(=O)CC1
Result Unit: %
inhibition: 0.92
--
Compound: CCOc1cc2[nH]c(=S)n(CCN3CCCCC3C)c(=O)c2cc1OCC (stereo not given)
Result Unit: %
inhibition: 66
--
Compound: CC(c1ccc(N)cc1)c1cn(C)c2ccccc12 (stereo not given)
Result Unit: %
inhibition: 2.19
--
Compound: C#CCNC(=O)C[C@H]1C[C@@]2(C(=O)OC)C(=C[C@H](C(C)C)O[C@@H]2C2CC2)N(Cc2ccco2)C1=O
Result Unit: %
inhibition: 1.95
--
Compound: C[C@H]1CCC/C=C/C(=O)c2c(O)cc(O)cc2CC(=O)O1
Result Unit: %
inhibition: 0.98
--
Compound: CN(C(N)=NC(=O)/C=C/c1ccccc1)C(C#Cc1ccccc1)Cc1ccccc1 (stereo not given)
Result Unit: %
inhibition: -1.59
--
Compound: CCN(CC)C(=O)CC[C@H]1CC[C@]2(CCCN(Cc3ccc(Cl)cc3)C2)O1
Result Unit: %
inhibition: -2.85
--
Compound: CCOc1cc2[nH]c(=S)n(CCCN3CCCC3=O)c(=O)c2cc1OCC
Result Unit: %
inhibition: -0.84
--
Compound: Cc1ccsc1-c1cc(C(=O)O)c2c(ccc3ccccc32)n1
Result Unit: %
inhibition: -2.73
--
Compound: O=C1CCC2(CCC(c3ccc(Cl)cc3)CC2)N1CCO (stereo not given)
Result Unit: %
inhibition: -1.17
--
Compound: O=C(CSc1nc2ccccc2s1)NN=Cc1ccc(O)cc1O
Result Unit: %
inhibition: -4.05
--
Compound: C[C@H]1CN([C@@H](C)CO)S(=O)(=O)c2ccc(Br)cc2O[C@H]1CN(C)C(=O)c1cnccn1
Result Unit: %
inhibition: -0.94
--
Compound: COc1ccc(Cn2c(=O)oc3ccccc32)cc1
Result Unit: %
inhibition: -0.71
--
Compound: COCCCNC(=O)C[C@H]1C[C@@]2(C(=O)OC)C(=C[C@H](C(C)(C)C)O[C@@H]2C)N(Cc2ccc(Cl)cc2Cl)C1=O
Result Unit: %
inhibition: -1
